Tested on: Candida albicans
Method: Antifungal activity against Candida albicans MTCC 7315 assessed as inhibition of fungal growth incubated for 24 hrs by agar well diffusion method
Type: functional
Experimental context: MTCC 7315, 24 h
# maps each entry to its MIC
Provide the reading as a plain figure in µg/mL.

>  <Compound>
COc1ccc2c(c1)Cc1c(C(=O)N/N=C/c3ccc(O)c(OC)c3)n[nH]c1-2

>  <MIC, µg/mL>
7.8

$$$$

Enquiry: Consider the compound "COc1ccc2c(c1)Cc1c(C(=O)N/N=C/c3c(F)cc(F)cc3F)n[nH]c1-2" and give its measured MIC.
Return: 15.6

Enquiry: Consider the compound "O=C(N/N=C/c1ccc(O)cc1)c1n[nH]c2c1Cc1ccccc1-2" and give its measured MIC.
Return: 15.6
